Test system: Nucleic Acid
PROCEDURE_DETAILS: Compound was measured for the inhibition of DNA cleavage against […] plasmid in the presence of 2M NaCl.
Assay type: nucleic-acid assay
Recorded inhibition values for a group of compounds are listed next.
ASSAY_METRIC: inhibition

- TEST_SMILES: "CCc1c(CC)c2cc3nc(cc4[nH]c(c(C)c4CC)c4[nH]c(cc5nc(cc1[nH]2)C(CCC(=O)NCCN(CCN)CCN)=C5C)c(CC)c4C)C(C)=C3CCC(=O)NCCN(CCN)CCN"
  TESTED_ON: "Nucleic Acid"
  RESULT: "93%"
- TEST_SMILES: "CCc1c(CC)c2cc3nc(cc4[nH]c(c(C)c4CC)c4[nH]c(cc5nc(cc1[nH]2)C(CCC(=O)N(CCO)CCO)=C5C)c(CC)c4C)C(C)=C3CCC(=O)N(CCO)CCO"
  TESTED_ON: "Nucleic Acid"
  RESULT: "92%"
- TEST_SMILES: "CCc1c(CC)c2cc3nc(cc4[nH]c(c(C)c4CC)c4[nH]c(cc5nc(cc1[nH]2)C(CCC(=O)NCCNCCN)=C5C)c(CC)c4C)C(C)=C3CCC(=O)NCCNCCN"
  TESTED_ON: "Nucleic Acid"
  RESULT: "87%"
- TEST_SMILES: "CCC1=C(CC)c2cc3[nH]c(cc4[nH]c(c(C)c4CC)c4[nH]c(cc5nc(cc1n2)C(CCC(=O)NCCOCCOCCN)=C5C)c(CC)c4C)c(C)c3CCC(=O)NCCOCCOCCN"
  TESTED_ON: "Nucleic Acid"
  RESULT: "66%"
